FYI, the data here is from patent US5968795A.

Biological target: Human Recombinant Gelatinase A (MMP-2) (Homo sapiens, UniProt P08253)
Sequence (P08253 110-660): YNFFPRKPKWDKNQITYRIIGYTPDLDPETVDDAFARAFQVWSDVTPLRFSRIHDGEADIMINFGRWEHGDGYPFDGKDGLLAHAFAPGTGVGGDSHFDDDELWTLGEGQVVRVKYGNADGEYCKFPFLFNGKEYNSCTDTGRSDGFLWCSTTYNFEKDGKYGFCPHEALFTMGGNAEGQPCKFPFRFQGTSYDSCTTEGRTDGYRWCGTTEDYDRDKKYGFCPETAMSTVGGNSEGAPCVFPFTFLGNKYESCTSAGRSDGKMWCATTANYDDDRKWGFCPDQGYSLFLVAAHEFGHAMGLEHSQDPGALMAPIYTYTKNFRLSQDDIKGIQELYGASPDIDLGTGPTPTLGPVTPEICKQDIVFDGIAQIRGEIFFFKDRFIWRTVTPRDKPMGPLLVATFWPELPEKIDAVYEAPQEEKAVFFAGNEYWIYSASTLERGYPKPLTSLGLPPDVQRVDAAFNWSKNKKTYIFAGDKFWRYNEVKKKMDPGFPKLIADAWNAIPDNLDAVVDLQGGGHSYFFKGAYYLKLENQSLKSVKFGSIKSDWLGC
Assay: P218 quenched fluorescence assay for MMP inhibition: MMP-2
Assay type: biochemical
Details: P218 substrate 6 μM, pH 6.5, 25 min at 37° C.; read-out: MMP-2 Fluorogenic IC-50
pIC50: −log10 of the molar value.
Class T: pIC50 at least 7. Class F: pIC50 below 7.

Incoming: Hi team, for O=C(C[C@@H](CCCc1ccccc1)C(=O)O)c1ccc(-c2ccc(C#CCO)cc2)cc1 , is the recorded pIC50 at or above 7?
Outgoing: T

Incoming: Hi team, for O=C(CC(CCN1C(=O)c2ccccc2C1=O)C(=O)O)c1ccc(-c2ccc(C#CCOCc3ccccc3)cc2)cc1 (stereo not shown) , is the recorded pIC50 at or above 7?
Outgoing: T

Incoming: Hi team, for CCCN(CC#Cc1ccc(-c2ccc(C(=O)CC(CCCc3ccccc3)C(=O)O)cc2)cc1)CCC (stereo not shown) , is the recorded pIC50 at or above 7?
Outgoing: F

Incoming: Hi team, for CC(=O)OCC#Cc1ccc(-c2ccc(C(=O)CC(CCCc3ccccc3)C(=O)O)cc2)cc1 (stereo not shown) , is the recorded pIC50 at or above 7?
Outgoing: T

Incoming: Hi team, for CC(=O)OCCC#Cc1ccc(-c2ccc(C(=O)CC(CCCc3ccccc3)C(=O)O)cc2)cc1 (stereo not shown) , is the recorded pIC50 at or above 7?
Outgoing: T

###

Target: Recombinant Human CHO Stromelysin (MMP-3) (Homo sapiens, UniProt P08254)
Sequence (P08254 100-477): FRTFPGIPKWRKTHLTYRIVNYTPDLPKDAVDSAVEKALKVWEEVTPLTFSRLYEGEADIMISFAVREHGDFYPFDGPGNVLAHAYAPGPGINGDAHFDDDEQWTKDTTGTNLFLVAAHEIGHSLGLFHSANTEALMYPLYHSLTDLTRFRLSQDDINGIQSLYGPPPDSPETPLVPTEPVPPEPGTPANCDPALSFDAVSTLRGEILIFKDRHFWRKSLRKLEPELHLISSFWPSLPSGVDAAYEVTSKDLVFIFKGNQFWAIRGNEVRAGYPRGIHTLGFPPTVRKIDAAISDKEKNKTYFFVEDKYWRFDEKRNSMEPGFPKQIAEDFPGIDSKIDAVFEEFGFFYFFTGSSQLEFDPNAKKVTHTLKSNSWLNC
Assay: P218 quenched fluorescence assay for MMP inhibition: MMP-3
Conditions: P218 substrate 6 μM, pH 6.5, 25 min at 37° C.; read-out: MMP-3 Fluorogenic IC-50
For each entry below, report its pIC50 value.
For clarity, pIC50 is expressed as the negative log10 of concentration in mol/L.

Incoming: // Input: CCOC(=O)OCC#Cc1ccc(-c2ccc(C(=O)CC(CCCc3ccccc3)C(=O)O)cc2)cc1 (centres unmarked) [Compound VII] . Output its pIC50 only.
Outgoing: 7.17

Incoming: // Input: O=C(C[C@@H](CCCc1ccccc1)C(=O)O)c1ccc(-c2ccc(C#CCO)cc2)cc1 [III] . Output its pIC50 only.
Outgoing: 8.30

Incoming: // Input: O=C(O)CCC#Cc1ccc(-c2ccc(C(=O)CC(CCCc3ccccc3)C(=O)O)cc2)cc1 (centres unmarked) [Compound X] . Output its pIC50 only.
Outgoing: 6.69

Incoming: // Input: O=C(CC(CCCc1ccccc1)C(=O)O)c1ccc(-c2ccc(C#Cc3ccccc3)cc2)cc1 (centres unmarked) [XIII] . Output its pIC50 only.
Outgoing: 6.39

Incoming: // Input: O=C(CC(CCCc1ccccc1)C(=O)O)c1ccc(-c2ccc(C#CCO)cc2)cc1 (racemic) [Compound I] . Output its pIC50 only.
Outgoing: 7.68

Incoming: // Input: O=C(CC(CCCc1ccccc1)C(=O)O)c1ccc(-c2ccc(C#Cc3cccc(O)c3)cc2)cc1 (centres unmarked) [XIV] . Output its pIC50 only.
Outgoing: 6.90

Incoming: // Input: O=C(CC(CCCc1ccccc1)C(=O)O)c1ccc(-c2ccc(C#CCCCCO)cc2)cc1 (centres unmarked) [XII] . Output its pIC50 only.
Outgoing: 7.25

Incoming: // Input: COCC#Cc1ccc(-c2ccc(C(=O)CC(CCCc3ccccc3)C(=O)O)cc2)cc1 (centres unmarked) [IV] . Output its pIC50 only.
Outgoing: 7.42
